This collection of values is drawn from patent US20240216513A1.

- targetDesc: BTK C481S (Homo sapiens, UniProt Q06187, C481S)
- Construct: endogenous in cells; host or cells: TMD8 BTK C481S mutant tumour xenografts in mice
- Sequence (Q06187 whole entry C481S): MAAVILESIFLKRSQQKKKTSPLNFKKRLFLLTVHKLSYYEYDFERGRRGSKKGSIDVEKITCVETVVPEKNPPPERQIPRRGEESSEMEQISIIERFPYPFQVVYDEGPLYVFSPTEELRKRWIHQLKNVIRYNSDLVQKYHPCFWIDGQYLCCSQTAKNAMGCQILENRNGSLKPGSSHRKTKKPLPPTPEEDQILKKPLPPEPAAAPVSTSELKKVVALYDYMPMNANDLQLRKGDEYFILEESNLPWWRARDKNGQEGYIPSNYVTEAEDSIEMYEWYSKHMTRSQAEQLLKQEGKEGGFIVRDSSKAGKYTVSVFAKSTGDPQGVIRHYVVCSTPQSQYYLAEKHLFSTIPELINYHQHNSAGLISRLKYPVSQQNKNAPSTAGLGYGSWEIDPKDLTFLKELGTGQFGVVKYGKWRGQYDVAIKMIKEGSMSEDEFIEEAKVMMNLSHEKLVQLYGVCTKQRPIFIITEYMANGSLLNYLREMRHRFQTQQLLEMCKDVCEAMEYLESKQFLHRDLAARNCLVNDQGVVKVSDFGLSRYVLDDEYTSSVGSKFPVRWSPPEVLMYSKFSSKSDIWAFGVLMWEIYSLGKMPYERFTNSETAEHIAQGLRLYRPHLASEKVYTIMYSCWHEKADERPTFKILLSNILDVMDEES
- procedureDetails: PD screen in TMD8 BTK C481S mutant tumor-bearing mice, BTK levels and compound concentrations in blood and tumor
- Type: in vivo, mouse
- details: i.v.; 25 umol/kg
experimentalEndpoint: Duration of BTK degradation in mouse ≥90% (days)
# number only, unit days dropped from output

These recorded examples may help you get a feel for the data.
compound="CCCCCCCCCCCN(C(=O)CCCCCCCCCCO)C(CCC(=O)NCCOCCOCCOCCOCCOCCOCCOCCOCCOCCOCCOCCOCCC(=O)NCCC(=O)NCCC(=O)OC(C)(C)c1ccc(C(=O)Nc2cc(F)cc(-c3ncnc4[nH]c(-c5ccc(CCN6CCC7(CC6)CCN(C(=O)c6ccc(OC)c(N8CCC(=O)NC8=O)c6)CC7)cc5)cc34)c2C)c(F)c1)C(=O)O (stereo not shown) [Example A5]" unittext=days reportedvalue=10
compound="CCCCCCCCCCCN(C(=O)CCCCCCCCCC(=O)O)C(CCC(=O)NCCOCCOCCOCCOCCOCCOCCOCCOCCOCCOCCOCCOCCC(=O)N[C@@H](C)C(=O)OC(C)(C)c1ccc(C(=O)Nc2cc(F)cc(-c3ncnc4[nH]c(-c5ccc(CCN6CCC7(CC6)CCN(C(=O)c6ccc(OC)c(N8CCC(=O)NC8=O)c6)CC7)cc5)cc34)c2C)c(F)c1)C(=O)O (stereo partly shown) [Example A16]" unittext=days reportedvalue=4
compound="CCCCCCCCCCCN(C(=O)CCCCCCCCCC(=O)O)C(CCC(=O)NCCOCCOCCOCCOCCOCCOCCOCCOCCOCCOCCOCCOCCC(=O)N[C@H](C)C(=O)OC(C)(C)c1ccc(C(=O)Nc2cc(F)cc(-c3ncnc4[nH]c(-c5ccc(CCN6CCC7(CC6)CCN(C(=O)c6ccc(OC)c(N8CCC(=O)NC8=O)c6)CC7)cc5)cc34)c2C)c(F)c1)C(=O)O (stereo partly shown) [Example A17]" unittext=days reportedvalue=4

Pending compound:
Req: Kindly state the measured Duration of BTK degradation in mouse ≥90% obtained for CCCCCCCCCCCN(C(=O)CCCCCCCCCC(=O)O)C(CCC(=O)NCCOCCOCCOCCOCCOCCOCCOCCOCCOCCOCCOCCOCCC(=O)NCC(=O)NCN(C(=O)c1ccc(C(C)(C)O)cc1F)c1cc(F)cc(-c2ncnc3[nH]c(-c4ccc(CCN5CCC6(CC5)CCN(C(=O)c5ccc(OC)c(N7CCC(=O)NC7=O)c5)CC6)cc4)cc23)c1C)C(=O)O (stereo not shown) [Example A36] with BTK C481S (Homo sapiens, UniProt Q06187, C481S).
Resp: 10

----------
- procedureDetails: BTK FAC plasma stability assay, mouse plasma
- Type: in vitro ADME
- details: 24 h
experimentalEndpoint: % Release of degrader after 24 h mouse

Req: Requested field: % Release of degrader after 24 h mouse. Item: CCCCCCCCCCCN(C(=O)CCCCCCCCCC(=O)O)C(CCC(=O)NCCOCCOCCOCCOCCOCCOCCOCCOCCOCCOCCOCCOCCC(=O)NCc1cc(C(=O)OC(C)(C)c2ccc(C(=O)Nc3cc(F)cc(-c4ncnc5[nH]c(-c6ccc(CCN7CCC8(CC7)CCN(C(=O)c7ccc(OC)c(N9CCC(=O)NC9=O)c7)CC8)cc6)cc45)c3C)c(F)c2)ccn1)C(=O)O (stereo not shown) [Example A26]
Resp: 20.4%

Req: Could you tell me which % Release of degrader after 24 h mouse is on file for CCCCCCCCCCCN(C(=O)CCCCCCCCCCO)C(CCC(=O)NCCOCCOCCOCCOCCOCCOCCOCCOCCOCCOCCOCCOCCC(=O)NCCC(=O)NCCC(=O)OC(C)(C)c1ccc(C(=O)Nc2cc(F)cc(-c3ncnc4[nH]c(-c5ccc(CCN6CCC7(CC6)CCN(C(=O)c6ccc(OC)c(N8CCC(=O)NC8=O)c6)CC7)cc5)cc34)c2C)c(F)c1)C(=O)O (stereo not shown) [Example A5] ?
Resp: 2%

Req: Any idea what % Release of degrader after 24 h mouse was measured for CCCCCCCCCCCN(C(=O)CCCCCCCCCC(=O)O)C(CCC(=O)NCCOCCOCCOCCOCCOCCOCCOCCOCCOCCOCCOCCOCCC(=O)NC(C)(C)CC(=O)OC(C)(C)c1ccc(C(=O)Nc2cc(F)cc(-c3ncnc4[nH]c(-c5ccc(CCN6CCC7(CC6)CCN(C(=O)c6ccc(OC)c(N8CCC(=O)NC8=O)c6)CC7)cc5)cc34)c2C)c(F)c1)C(=O)O (stereo not shown) [Example A18] ?
Resp: 0.8%

Req: Any idea what % Release of degrader after 24 h mouse was measured for CCCCCCCCCCCN(C(=O)CCCCCCCCCC(=O)O)C(CCC(=O)NCCOCCOCCOCCOCCOCCOCCOCCOCCC(=O)NCC(=O)OC(C)(C)c1ccc(C(=O)Nc2cc(F)cc(-c3ncnc4[nH]c(-c5ccc(CCN6CCC7(CC6)CCN(C(=O)c6ccc(OC)c(N8CCC(=O)NC8=O)c6)CC7)cc5)cc34)c2C)c(F)c1)C(=O)O (stereo not shown) [Example A8] ?
Resp: 20.1%

----------
- procedureDetails: BTK FAC plasma stability assay, PBS buffer arm
- Assay type: physicochemical
- details: 24 h
Recorded % Release of degrader after 24 h PBS by entry
Express it in %; write the number only.

Please review the entries below; each comes with its answer.
molecule="CCCCCCCCCCCN(C(=O)CCCCCCCCCC(=O)O)[C@@H](CCC(=O)NCCOCCOCCOCCOCCOCCOCCOCCOCCOCCOCCOCCOCCC(=O)N(CCC(=O)OC(C)(C)c1ccc(C(=O)Nc2cc(F)cc(-c3ncnc4[nH]c(-c5ccc(CCN6CCC7(CC6)CCN(C(=O)c6ccc(OC)c(N8CCC(=O)NC8=O)c6)CC7)cc5)cc34)c2C)c(F)c1)CC(=O)O)C(=O)O [Example A24]" experimentalendpoint="% Release of degrader after 24 h PBS" unittext=% reportedvalue=2.8
molecule="CCCCCCCCCCCN(C(=O)CCCCCCCCCC(=O)O)C(CCC(=O)NCCOCCOCCOCCOCCOCCOCCOCCOCCOCCOCCOCCOCCOCCOCCOCCOCCC(=O)NCC(=O)OC(C)(C)c1ccc(C(=O)Nc2cc(F)cc(-c3ncnc4[nH]c(-c5ccc(CCN6CCC7(CC6)CCN(C(=O)c6ccc(OC)c(N8CCC(=O)NC8=O)c6)CC7)cc5)cc34)c2C)c(F)c1)C(=O)O (stereo not shown) [Example A9]" experimentalendpoint="% Release of degrader after 24 h PBS" unittext=% reportedvalue=1.2
molecule="CCCCCCCCCCCN(C(=O)CCCCCCCCCC(=O)O)[C@@H](CCC(=O)NCC(=O)OC(C)(C)c1ccc(C(=O)Nc2cc(F)cc(-c3ncnc4[nH]c(-c5ccc(CCN6CCC7(CC6)CCN(C(=O)c6ccc(OC)c(N8CCC(=O)NC8=O)c6)CC7)cc5)cc34)c2C)c(F)c1)C(=O)O [Example A6]" experimentalendpoint="% Release of degrader after 24 h PBS" unittext=% reportedvalue=0.4
molecule="CCCCCCCCCCCN(C(=O)CCCCCCCCCC(=O)O)C(CCC(=O)NCCOCCOCCOCCOCCOCCOCCOCCOCCOCCOCCOCCOCCC(=O)N1CCC(CC(=O)OC(C)(C)c2ccc(C(=O)Nc3cc(F)cc(-c4ncnc5[nH]c(-c6ccc(CCN7CCC8(CC7)CCN(C(=O)c7ccc(OC)c(N9CCC(=O)NC9=O)c7)CC8)cc6)cc45)c3C)c(F)c2)CC1)C(=O)O (stereo not shown) [Example A21]" experimentalendpoint="% Release of degrader after 24 h PBS" unittext=% reportedvalue=0.2
molecule="CCCCCCCCCCCN(C(=O)CCCCCCCCCC(=O)O)[C@H](CCC(=O)NCCOCCOCCOCCOCCOCCOCCOCCOCCOCCOCCOCCOCCC(=O)NCC(=O)OC(C)(C)c1ccc(C(=O)Nc2cc(F)cc(-c3ncnc4[nH]c(-c5ccc(CCN6CCC7(CC6)CCN(C(=O)c6ccc(OC)c(N8CCC(=O)NC8=O)c6)CC7)cc5)cc34)c2C)c(F)c1)C(=O)O [Example A3]" experimentalendpoint="% Release of degrader after 24 h PBS" unittext=% reportedvalue=1.9
molecule="CCCCCCCCCCCN(C(=O)CCCCCCCCCC(=O)O)[C@@H](CCC(=O)NCCOCCOCCOCCOCCOCCOCCOCCOCCOCCOCCOCCOCCC(=O)NCC(=O)OC(C)(C)c1ccc(C(=O)Nc2cc(F)cc(-c3ncnc4[nH]c(-c5ccc(CCN6CCC7(CC6)CCN(C(=O)c6ccc(OC)c(N8CCC(=O)NC8=O)c6)CC7)cc5)cc34)c2C)c(F)c1)C(=O)O [Example A2]" experimentalendpoint="% Release of degrader after 24 h PBS" unittext=% reportedvalue=0.8

Req: Which % Release of degrader after 24 h PBS value is on record for CCCCCCCCCCCN(C(=O)CCCCCCCCCC(=O)O)C(CCC(=O)NCCOCCOCCOCCOCCOCCOCCOCCOCCOCCOCCOCCOCCOCCOCCOCCOCCOCCOCCOCCOCCOCCOCCOCCOCCC(=O)NCC(=O)OC(C)(C)c1ccc(C(=O)Nc2cc(F)cc(-c3ncnc4[nH]c(-c5ccc(CCN6CCC7(CC6)CCN(C(=O)c6ccc(OC)c(N8CCC(=O)NC8=O)c6)CC7)cc5)cc34)c2C)c(F)c1)C(=O)O (stereo not shown) [Example A32] ?
Resp: 1
